Test system: Candida albicans
Method: Antifungal activity against Candida albicans CA4 after 48 hrs by broth microdilution method
Assay type: functional
Conditions Used: CA4, 48 h
Attribute Measured: MIC (µg/mL)
Could you give me the number in µg/mL? Just the number is fine.

q: // fetch Candida albicans MIC for OC(Cn1cncn1)(Cn1cncn1)c1ccc(F)cc1F
a: 1

q: Then CCC(C)n1ncn(-c2ccc(N3CCN(c4ccc(OCC5COC(Cn6cncn6)(c6ccc(Cl)cc6Cl)O5)cc4)CC3)cc2)c1=O (centres undefined) ?
a: 0.031

q: Then CC(C)[C@H]1CC[C@@H]2[C@]1(C)CC[C@]1(C)[C@H]3CC[C@@H]4[C@](C(=O)O)(C[C@@H](O)[C@H](O)[C@@]4(C)C(=O)O)C3=CC[C@@]21C ?
a: 8

q: Then CC(=O)N1CCN(c2ccc(OCC3COC(Cn4ccnc4)(c4ccc(Cl)cc4Cl)O3)cc2)CC1 (centres undefined) ?
a: 0.062

----------
Please go through the items and note down their MIC.
Test system: Candida albicans
Method: Antifungal activity against Candida albicans CA132 after 48 hrs by broth microdilution method
Assay type: functional
Conditions Used: CA132, 48 h
Could you give the number and then its unit, please?

q: Query: MIC; subject: CCC(C)n1ncn(-c2ccc(N3CCN(c4ccc(OCC5COC(Cn6cncn6)(c6ccc(Cl)cc6Cl)O5)cc4)CC3)cc2)c1=O (centres undefined)
a: 0.031 µg/mL

q: Then OC(Cn1cncn1)(Cn1cncn1)c1ccc(F)cc1F ?
a: 0.5 µg/mL

q: Then CC(=O)N1CCN(c2ccc(OCC3COC(Cn4ccnc4)(c4ccc(Cl)cc4Cl)O3)cc2)CC1 (centres undefined) ?
a: 0.031 µg/mL

q: Then CC(C)[C@H]1CC[C@@H]2[C@]1(C)CC[C@]1(C)[C@H]3CC[C@@H]4[C@](C(=O)O)(C[C@@H](O)[C@H](O)[C@@]4(C)C(=O)O)C3=CC[C@@]21C ?
a: 8 µg/mL

----------
Test system: Candida albicans
Method: Antifungal activity against Candida albicans CA138 after 48 hrs by broth microdilution method
Format: functional
Conditions Used: CA138, 48 h
Attribute Measured: MIC
Could you give the number and then its unit, please?

q: Query: MIC; subject: CC(=O)N1CCN(c2ccc(OCC3COC(Cn4ccnc4)(c4ccc(Cl)cc4Cl)O3)cc2)CC1 (centres undefined)
a: 16 µg/mL

q: Then CCC(C)n1ncn(-c2ccc(N3CCN(c4ccc(OCC5COC(Cn6cncn6)(c6ccc(Cl)cc6Cl)O5)cc4)CC3)cc2)c1=O (centres undefined) ?
a: 64 µg/mL

q: Then OC(Cn1cncn1)(Cn1cncn1)c1ccc(F)cc1F ?
a: 128 µg/mL

q: Then CC(C)[C@H]1CC[C@@H]2[C@]1(C)CC[C@]1(C)[C@H]3CC[C@@H]4[C@](C(=O)O)(C[C@@H](O)[C@H](O)[C@@]4(C)C(=O)O)C3=CC[C@@]21C ?
a: 8 µg/mL
